# experimental.target: Tyrosine-protein kinase ABL1 (Homo sapiens, UniProt P00519, E255K)
# Sequence (P00519 whole entry E255K, the tested form may be a part): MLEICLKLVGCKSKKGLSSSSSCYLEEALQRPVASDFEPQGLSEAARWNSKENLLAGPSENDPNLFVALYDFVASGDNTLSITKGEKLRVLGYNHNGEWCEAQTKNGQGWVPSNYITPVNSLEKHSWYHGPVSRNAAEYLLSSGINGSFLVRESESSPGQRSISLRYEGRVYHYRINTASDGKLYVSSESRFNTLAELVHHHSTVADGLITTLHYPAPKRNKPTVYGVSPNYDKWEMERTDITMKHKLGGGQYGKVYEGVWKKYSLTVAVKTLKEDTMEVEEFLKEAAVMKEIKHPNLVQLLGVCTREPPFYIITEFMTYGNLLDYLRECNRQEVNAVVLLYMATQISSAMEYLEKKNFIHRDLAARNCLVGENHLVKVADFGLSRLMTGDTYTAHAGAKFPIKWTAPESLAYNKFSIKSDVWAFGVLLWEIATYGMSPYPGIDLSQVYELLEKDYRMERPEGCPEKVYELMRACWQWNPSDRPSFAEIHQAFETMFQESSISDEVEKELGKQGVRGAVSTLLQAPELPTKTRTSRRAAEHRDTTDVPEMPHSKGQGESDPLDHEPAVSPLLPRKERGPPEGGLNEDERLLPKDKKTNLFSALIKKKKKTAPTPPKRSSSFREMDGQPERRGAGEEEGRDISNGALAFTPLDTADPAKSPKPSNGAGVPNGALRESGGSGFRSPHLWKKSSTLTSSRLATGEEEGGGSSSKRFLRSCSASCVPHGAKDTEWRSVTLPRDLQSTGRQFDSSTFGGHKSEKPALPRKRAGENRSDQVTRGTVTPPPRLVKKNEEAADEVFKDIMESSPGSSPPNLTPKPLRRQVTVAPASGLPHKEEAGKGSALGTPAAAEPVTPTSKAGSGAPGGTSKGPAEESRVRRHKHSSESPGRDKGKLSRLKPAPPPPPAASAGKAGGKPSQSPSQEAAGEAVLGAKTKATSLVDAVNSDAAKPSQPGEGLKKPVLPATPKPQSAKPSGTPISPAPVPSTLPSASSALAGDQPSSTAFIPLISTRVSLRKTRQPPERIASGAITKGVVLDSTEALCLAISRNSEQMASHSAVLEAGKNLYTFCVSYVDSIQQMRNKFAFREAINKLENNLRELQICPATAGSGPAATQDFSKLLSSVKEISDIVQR
# assay.text: Binding affinity to human phosphorylated ABL1 E255K mutant (S229 to K512 residues) expressed in mammalian expression system by KINOMEscan assay
value.type: Kd

>>> measurement("CC(C)CN(C(=O)c1cccnc1)c1c2ccccc2c(=O)n2c1[nH]c1ccccc12")
"≥ 5 µM"

---

# experimental.target: Serine/threonine-protein kinase pim-3 (Homo sapiens, UniProt Q86V86)
value.type: Kd

>>> measurement("CC(C)CN(C(=O)c1cccnc1)c1c2ccccc2c(=O)n2c1[nH]c1ccccc12")
"≥ 5 µM"

---

# experimental.target: Phosphatidylinositol 4,5-bisphosphate 3-kinase catalytic subunit gamma isoform (Homo sapiens)
# Sequence (P48736 whole entry, the tested form may be a part, canonical isoform): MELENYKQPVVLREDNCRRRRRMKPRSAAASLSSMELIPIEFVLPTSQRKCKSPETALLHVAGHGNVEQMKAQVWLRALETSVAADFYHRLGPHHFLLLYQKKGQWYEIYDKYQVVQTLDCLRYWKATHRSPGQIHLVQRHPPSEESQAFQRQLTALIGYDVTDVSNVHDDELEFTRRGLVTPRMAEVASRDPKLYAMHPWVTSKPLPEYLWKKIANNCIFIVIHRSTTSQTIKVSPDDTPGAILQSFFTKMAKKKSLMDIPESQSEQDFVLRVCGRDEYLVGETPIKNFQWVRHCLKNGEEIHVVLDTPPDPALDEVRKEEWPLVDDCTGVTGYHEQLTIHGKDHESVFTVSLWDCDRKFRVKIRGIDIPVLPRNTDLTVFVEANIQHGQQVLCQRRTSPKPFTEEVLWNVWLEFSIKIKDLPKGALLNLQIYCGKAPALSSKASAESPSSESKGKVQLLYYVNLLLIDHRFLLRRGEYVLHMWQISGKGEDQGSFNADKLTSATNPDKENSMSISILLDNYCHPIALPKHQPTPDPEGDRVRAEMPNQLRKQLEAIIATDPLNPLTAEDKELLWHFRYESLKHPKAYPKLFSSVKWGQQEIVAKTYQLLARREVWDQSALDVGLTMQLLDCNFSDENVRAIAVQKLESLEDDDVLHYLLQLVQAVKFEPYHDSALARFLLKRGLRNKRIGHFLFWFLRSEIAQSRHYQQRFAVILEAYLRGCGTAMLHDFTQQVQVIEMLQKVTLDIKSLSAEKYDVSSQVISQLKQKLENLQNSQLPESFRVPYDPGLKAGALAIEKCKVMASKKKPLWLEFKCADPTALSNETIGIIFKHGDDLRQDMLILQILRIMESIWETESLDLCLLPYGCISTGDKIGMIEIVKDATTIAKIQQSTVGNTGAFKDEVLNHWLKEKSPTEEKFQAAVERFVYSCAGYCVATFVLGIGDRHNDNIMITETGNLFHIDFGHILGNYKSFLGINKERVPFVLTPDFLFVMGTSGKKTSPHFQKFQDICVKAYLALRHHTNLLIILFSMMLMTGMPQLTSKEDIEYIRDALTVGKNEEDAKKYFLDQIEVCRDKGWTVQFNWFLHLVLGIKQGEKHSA
# assay.text: Binding affinity to human PIK3CG (S144 to A1102 residues) expressed in mammalian expression system by KINOMEscan assay
value.type: Kd

>>> measurement("CC(C)CN(C(=O)c1cccnc1)c1c2ccccc2c(=O)n2c1[nH]c1ccccc12")
"≥ 5 µM"
